Test system: HCT-15 colon
Assay info: NCI tumour cell line growth inhibition, 48 h
The following compounds are listed with their measured TGI values.

Compound: COC(=O)Nc1nc2cc(OC)c(OC)cc2c(=O)[nH]1
Tested system: HCT-15 colon
TGI: > 100 µM

Fill in: TGI of CC(=O)OC1COC(Nc2ccc(C(C)=O)cc2)C(OC(C)=O)C1OC(C)=O (configuration not stated) is ___
> 100 µM

Find the recorded TGI belonging to O=C1SS(=O)c2ccccc21 (configuration not stated) and report it.
> 100 µM

Can you share its TGI? I mean this compound: N#C/C(=C/c1ccc[nH]1)P(=O)(O)O
> 100 µM

Field request: TGI | item: Nc1ncnc2c1nc(Cl)n2C1OC2COP(=O)(O)OC2C1O (configuration not stated)
> 300 µM

What measured TGI goes with COc1c(C)c2c(c(=O)c3c(C)cccc3n2C)c2c1c(=O)c1c(C)cccc1n2C ?
> 10 µM

Item under review: COc1ccc2c(=O)c3ccoc3n(CC=C(C)C)c2c1 . Reported TGI?
> 100 µM

Give the measured TGI of Cn1nc2ccc3nccc(N4CCN(CCO)CC4)c3c2n1 .
> 100 µM

What value of TGI has been recorded for this entry: Nc1ccc2nc(Nc3ccc(F)cc3)cnc2c1
> 100 µM

Could you tell me which TGI is on file for COc1ccc(-n2nnnc2-c2c[nH]c3c(F)cc(F)cc23)cc1 ?
> 100 µM

Item COC1CC(OC2C(C)OC(OC3C(C)OC(OC4C(O)CC(O[C@H]5CC[C@@]6(C)C(=CC[C@]7(O)[C@@H]6C[C@@H](OC(=O)/C=C/c6ccccc6)[C@@]6(C)[C@]7(O)CC[C@@]6(O)C(C)=O)C5)OC4C)CC3OC)CC2OC)OC(C)C1O (some centres not stated) has what recorded TGI?
> 6.25 µM

Consider the compound Nc1nc(N)c(C2=CCNCC2)c(=O)[nH]1 and give its measured TGI.
> 100 µM

---

Test system: CCRF-CEM leukemia
Assay info: NCI tumour cell line growth inhibition, 48 h
Catalogue of TGI readings, one per entry.

Some solved cases for reference:
Compound: CC(C)=NN/C(=N\S(=O)(=O)c1ccc(C)cc1)Nc1ccc(Cl)cc1
Tested system: CCRF-CEM leukemia
Recorded result: > 100 µM
//
Compound: CC(=O)Nc1ccc(NC(=O)c2c(Cl)c(Cl)c(Cl)c(Cl)c2-c2nc3ccccc3[nH]2)cc1
Tested system: CCRF-CEM leukemia
Recorded result: > 100 µM
//
Compound: C[S+](C)CCOC(=O)C(=[N+]=[N-])c1ccc([N+](=O)[O-])cc1
Tested system: CCRF-CEM leukemia
Recorded result: > 100 µM

Query for CCRF-CEM leukemia: what TGI does the record show for O=C1SS(=O)c2ccccc21 (stereo not drawn) ?
> 100 µM

Kindly state the measured TGI obtained for O=C1CCC(=O)N1Cc1ccccc1N=[N+]([O-])c1ccccc1CN1C(=O)CCC1=O with CCRF-CEM leukemia.
> 100 µM

API: value(readout= TGI, system= CCRF-CEM leukemia, query= CC(C)(C)c1cc(C2NCCO2)cc(C(C)(C)C)c1O (stereo not drawn) )
> 100 µM

# value lookup — system CCRF-CEM leukemia, readout TGI, item COc1ccc(-n2nnnc2-c2c[nH]c3c(F)cc(F)cc23)cc1
> 100 µM

Param readout= TGI; system= CCRF-CEM leukemia; entry= Cc1ccc2ccccc2c1NC1=NCCO1 ; returns value.
> 100 µM

For the record O=C(Nc1cc(Cl)cc(Cl)c1)c1ccc(NC2=C(Cl)C(=O)N(Cc3ccc(Cl)cc3Cl)C2=O)cc1 , what value of TGI is listed for CCRF-CEM leukemia?
0.819 µM

Form entry - test system: CCRF-CEM leukemia; read-out: TGI; compound: O=c1[nH]/c(=C/c2ccc(OCc3ccccc3)cn2)c(=O)[nH]/c1=C/c1ccc([N+](=O)[O-])cc1
> 100 µM
